Every entry's value here was drawn from the supplement of paper PMC11865577.

- System: G-clamp-N3 (biotin conjugate)
- EXPERIMENT_SUMMARY: pull-down binding Z-score (relative to library population); higher = stronger binding
- CONDITION_PARAMETERS: RNA library: Library-1 (pre-miRNA loops + repeats)
pull-down binding Z-score values, listed per item

>>> measured_value("CUGUUUGUUGUCUGAGAAAAAACA [hsa-mir-520g_520h]")
1.11
>>> measured_value("CUGGAGUCGCCUGAGUCAUCACUCAG [hsa-mir-3065]")
-0.66
>>> measured_value("CAAGUAAAAGGAAUUUUCAUUUUCCAGCCCCUAAUUG [hsa-mir-6739]")
-1.23
>>> measured_value("CUGGGGGAAGGCUCCAGACCCCAGCCU [hsa-mir-4267]")
-0.401

Below: the item to evaluate.
Which measured pull-down binding Z-score value corresponds to GGACUCAGCCCUGUGCUGAGCCC [hsa-mir-5587] ?
-0.0279

====

- System: TO-3-N3-2 (biotin conjugate)
- EXPERIMENT_SUMMARY: pull-down binding Z-score (relative to library population); higher = stronger binding
- CONDITION_PARAMETERS: RNA library: Library-2
pull-down binding Z-score values, listed per item
I'd appreciate a reply containing only the number, no unit.

Which measured pull-down binding Z-score value corresponds to GUGUUUAUUUUUUACUAAAUAG [hsa-mir-4766] ?
0.102

Which measured pull-down binding Z-score value corresponds to AGGGACCCCCGGAGUCUGUCACGGUCUCA [hsa-mir-6784] ?
0.215

Which measured pull-down binding Z-score value corresponds to AGAUCUGUCUCUGAUUGUUUCCAAGAUCU [hsa-mir-6888] ?
0.0544

Which measured pull-down binding Z-score value corresponds to AUCUGAAUUCUUCUAGAGUUCCUGAU ?
-0.168

Which measured pull-down binding Z-score value corresponds to GGGGGCAGGCAGGGGAUUGGCUAAGAACCUGACUCUUGC [hsa-mir-7703] ?
1.44

Which measured pull-down binding Z-score value corresponds to CCAUUUCAUCUUUUAAAUGG ?
-0.38

Which measured pull-down binding Z-score value corresponds to CUUUAUUAGAAG [DMSMaPseq_invitro_SARS-CoV-2_Motif_195] ?
-0.21

Which measured pull-down binding Z-score value corresponds to GUGGUUGACCUACACAGGUGCCAU ?
-0.562

Which measured pull-down binding Z-score value corresponds to UGGAUGUAAUUAUCUUGGCAAACCACGCGAACAAAUAGAUGGUUAUGUCAUGCAUGCA ?
-0.0277

Which measured pull-down binding Z-score value corresponds to ACCACCCAGGCCUUAUGGCUUCAUA [hsa-mir-7974] ?
-0.0756

Which measured pull-down binding Z-score value corresponds to GUUAACUGGUUAUAAGAAACCUGCUUCAAGAGAGCUUAAAGUUAC ?
0.092

Which measured pull-down binding Z-score value corresponds to CCAGUAUCUGAAUUACUUACACCACUGGGCAUUGAUUUAGAUGAGUGGAGUAUGGCUACAUACUACUUAUUUGAUGAGUCUGGUGAGUUUAAAUUGG ?
-0.468

Which measured pull-down binding Z-score value corresponds to GAGGCUAUGUACACACCGCAUACAGUCUUACAGGCUGUUGGGGCUUGUGUUCUUUGCAAUUC [SHAPE_invitro_SARS-CoV-2_Motif_296] ?
-0.158

====

pull-down binding Z-score values, listed per item
- Tested on: TO-N3-2 (biotin conjugate)
- EXPERIMENT_SUMMARY: pull-down binding Z-score (relative to library population); higher = stronger binding
- CONDITION_PARAMETERS: RNA library: Library-2

Use the examples below as a reference point.
>>> measured_value("AUUACUUGUGUUCUAUAUAAAGUAUU [hsa-mir-92a-2]")
-0.831
>>> measured_value("CUGGCUUCUCUGGUUCUCCAGCUUACAG [hsa-mir-1269b]")
0.333
>>> measured_value("ACCAUAUCUAAGCUAAUGUGGUGGU [hsa-mir-876]")
-0.259
>>> measured_value("UGCCAUACUUUUAACGGCA [hsa-mir-548i-4]")
-1.06
>>> measured_value("GCCCUUAUAGGGC [IAV_invivo_NA_6_Motif_5+IAV_invivo_NA_6_Motif_5]")
-1.22

Which measured pull-down binding Z-score value corresponds to GAAGCUGUAAGACACAGCUAAGCUUU [hsa-mir-30d] ?
0.0477

Which measured pull-down binding Z-score value corresponds to UGUUAGUGUUCAAGUCUACA [hsa-mir-4802] ?
-0.255

Which measured pull-down binding Z-score value corresponds to UCACAGUUGGUUUCUGACACGUGG [hsa-mir-4535] ?
-0.0476

Which measured pull-down binding Z-score value corresponds to UGUCAUUACUUCAGGUGAUGGCA ?
-1.31

====

- Test system: TO-N3 (biotin conjugate)
- EXPERIMENT_SUMMARY: pull-down binding Z-score (relative to library population); higher = stronger binding
- CONDITION_PARAMETERS: RNA library: Library-2
OBSERVED_PROPERTY: pull-down binding Z-score
I'd appreciate a reply containing only the number, no unit.

Use the examples below as a reference point.
>>> measured_value("GCCCGCUGUGUUCACUCGGGC [hsa-mir-602]")
-0.398
>>> measured_value("UGCCUUGUAGCAUUCAGGUCAAGCA [hsa-mir-103a-2]")
-0.524
>>> measured_value("UCCUUUUCUCUACCUUGUAGAGAAGCA [hsa-mir-3609]")
0.281
>>> measured_value("CACACUGGUGAGGUAACAGGAUCCGGUG [hsa-mir-182]")
0.38
>>> measured_value("CAGAGGCUGGCUUUCCAAAACUCUG [hsa-mir-1913]")
0.884

Which measured pull-down binding Z-score value corresponds to CAGGCAAUAACAGUUACACCGGAAGCCAAUAUGGAUCAAGAAUCCUUUGGUGGUGCAUCGUGUUGUCUG [SHAPE_invivo_SARS-CoV-2_Motif_250] ?
1.2

Which measured pull-down binding Z-score value corresponds to GGUGCAAAGCCUGCCCGCCCC [hsa-mir-5090] ?
0.254

====

- System: TO-3-N3 (biotin conjugate)
- EXPERIMENT_SUMMARY: pull-down binding Z-score (relative to library population); higher = stronger binding
- CONDITION_PARAMETERS: RNA library: Library-2
Label true (1) when pull-down binding Z-score is at or above -0.5; anything below gets false (0).

Example results:
>>> class_assignment("UUUUCCUGAGAAUAAGAGAAGGAAGG [hsa-mir-4455]")
"true (1)"
>>> class_assignment("AUCAUGUAUAAUUAAAAAUGAU [hsa-mir-509-2_509-3_509-1]")
"true (1)"
>>> class_assignment("UUUUCUGUCCUGUCCACACAGAAAA [hsa-mir-1537]")
"false (0)"

Answer whether pull-down binding Z-score of AUCUUCCUGACCUGGUAAUAAUUAGGUGAGAAGGAU [hsa-mir-8069-2_8069-1] is greater than or equal to -0.5.
false (0)

Answer whether pull-down binding Z-score of GGAUGUGUUGACCCCUGAAGUGGUUCUGAUGACCUUUCC [hsa-mir-6883] is greater than or equal to -0.5.
true (1)

Answer whether pull-down binding Z-score of AGCCAAAAUCACCAGGGA [hsa-mir-4534] is greater than or equal to -0.5.
true (1)

Answer whether pull-down binding Z-score of AUGUGAUGUCACUGAGGAAAUCACAC [hsa-mir-216b] is greater than or equal to -0.5.
true (1)

====

- Tested on: G-clamp-N3 (biotin conjugate)
- EXPERIMENT_SUMMARY: pull-down binding Z-score (relative to library population); higher = stronger binding
- CONDITION_PARAMETERS: RNA library: Library-1 (pre-miRNA loops + repeats)
Label true when pull-down binding Z-score is at or above 0.3; anything below gets false.

>>> class_assignment("CGUGCAAGUUUAAGUUUUUGCACG [hsa-mir-4445]")
"true"
>>> class_assignment("GCCUCCUGGAUCUCUAGGUCUCAGGGC [hsa-mir-6744]")
"false"
>>> class_assignment("AGAGGCUGUGGGCAGGGGGAGAUGUGAAGGAAAGAACUAGGACCCAUUCAUCCACU [hsa-mir-6807]")
"true"
>>> class_assignment("CCUAGUGGCUAGCCCUGGGUCUAGCAGCCUAUGGCAGUGUCUGGUAAACACUGGUGGAGUCCUGGG [hsa-mir-6745]")
"true"
>>> class_assignment("AUUUCUGUAGCUCUGAGACUAGACCU [hsa-mir-544b]")
"false"

Answer whether pull-down binding Z-score of UCCUAGGCGGGUCGCUGCGGUACCUCCCUCCUGUCUGUGGCGGUGGGAUCCCGUGGCCGUGUUUUCCUGGUG [hsa-mir-663b] is greater than or equal to 0.3.
false

====

pull-down binding Z-score values, listed per item
- Test system: TO-3-N3-2 (biotin conjugate)
- EXPERIMENT_SUMMARY: pull-down binding Z-score (relative to library population); higher = stronger binding
- CONDITION_PARAMETERS: RNA library: Library-2
I'd appreciate a reply containing only the number, no unit.

>>> measured_value("GCACCAUUAUUAUCAGCUGGUAUUUUUGGUGC")
-0.502
>>> measured_value("GUGAGGCAGGGAGCUGAGCUCAC [hsa-mir-3622a]")
0.142
>>> measured_value("AACAUUUACUUAUGCAUCAGCAUUGUGGGAAAUCCAACAGGUUGUAGAUGCAGAUAGUAAAAUUGUU [DMSMaPseq_invitro_SARS-CoV-2_Motif_222]")
-0.0746
>>> measured_value("GGGACACAUUUGAGCCAAAUGUCCC [hsa-mir-610]")
-0.331
>>> measured_value("GGAGAUUGGAGUGGCCAGUGUUCCUAAACAAUUC [hsa-mir-4263]")
0.226
>>> measured_value("CCACUUGGCUAUGUAACACAUGGCUUAAAUUUGG [DMSMaPseq_invitro_SARS-CoV-2_Motif_85]")
-0.0708

// map AGUUGUGAUCAACU to recorded pull-down binding Z-score (system: TO-3-N3-2 (biotin conjugate))
-0.728

// map AAAUUUACAAGAAUUU [SHAPE_invivo_SARS-CoV-2_Motif_380] to recorded pull-down binding Z-score (system: TO-3-N3-2 (biotin conjugate))
-0.556

// map CUGGUAGUAUAAAACCCAG [hsa-mir-934] to recorded pull-down binding Z-score (system: TO-3-N3-2 (biotin conjugate))
-0.114

// map AAUGACUCAUAGUCAA [hsa-mir-4475] to recorded pull-down binding Z-score (system: TO-3-N3-2 (biotin conjugate))
-0.157

// map ACCAAUGUGCUAUGAGGCCCAAUUUCACUAUUAAGGGUUCAUUCCUUAAUGGUUCAUGUGGUAGUGUUGGU [SHAPE_invivo_SARS-CoV-2_Multi_27_ComplexLevel_1] to recorded pull-down binding Z-score (system: TO-3-N3-2 (biotin conjugate))
-0.186

// map UCCUUUUCUCUACCUUGUAGAGAAGCA [hsa-mir-3609] to recorded pull-down binding Z-score (system: TO-3-N3-2 (biotin conjugate))
-0.379
